Values from PubChem BioAssay

Experiment: small-molecule microarray binders of probe aEGFR, primary screen, biochemical, biotinylated probe, 635/667 nm fluorescence (AID 1097);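 also: probe is a biotinylated anti-EGFR antibody binding compounds printed on slides; score combines fluorescence near 667 nm and signal to noise of each spot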
Conditions: higher = more signal
Record form. Attribute: composite z-score. Fill in for each entry.
Give bare numbers.

Guide cases for composite z-score, answers given:
# molecule, composite z-score
records = [
    ("COC(=O)[C@H](C)NC(=O)CCC1CC(OC(=O)NCCc2ccc(F)cc2)CC2(CCCC(COC(=O)NCCOc3ccccc3)O2)O1 (some centres not stated)", -0.106),
    ("O=C(NN=C1C[C@@H](O)[C@@H](O)[C@@H]2[C@@H]3C(=O)N(Cc4ccc5c(c4)OCO5)C(=O)[C@@H]3CC[C@@H]12)OCc1ccccc1", -0.0433),
    ("O=C1[C@H]2[C@H]3[C@H](O)[C@H](O)CC(=NO[C@@H]4O[C@H](CO)[C@@H](O)[C@H](O)[C@H]4O)[C@@H]3CC[C@H]2C(=O)N1c1cccc(Oc2ccccc2)c1", 0.0102),
    ("CC=CC1=C(CO)[C@H](O)[C@H]2O[C@H]2[C@@H]1O", -0.128),
    ("O=C1C2=CC[C@H]3C(=O)N(C[C@@H]4CCCO4)C(=O)[C@H]3[C@H]2[C@H](O)[C@@H]2O[C@H]12", -0.0565),
]

For every item below, please supply its composite z-score.
1. CC(CCN1CCc2nc(-c3ccccc3)c(-c3ccccc3)cc2C1)=NO[C@@H](C)c1cc(-c2c(C)cc(C)cc2C)no1
2. CCOC(=O)[C@H](CC(C)C)NC(=O)CCC1CC(OC(=O)NCc2ccc3c(c2)OCO3)CC2(CCCC(COC(=O)NCc3ccccc3)O2)O1 (some centres not stated)

Marked response:
[-0.17, -0.0978]
